Overview of recorded Detection time (±std dev) for various compounds
- Test system: Escherichia coli strain BL21
- assay details: Chronoamperometric detection of E. coli with electrochemically active reporters in three-electrode electrochemical systems (ECs)
- Type: cell-based
- recorded conditions: 37° C.; inoculum 5 × 10^2 CFU mL^−1; chronoamperometry in ECs; reporter 50 μM
observable: Detection time (±std dev)

O=C1C=C(O[C@@H]2O[C@H](CO)[C@@H](O)[C@H](O)[C@H]2O)C(=O)c2ccccc21    339(±41) minutes
O=c1ccc2nc3ccc(O[C@@H]4O[C@H](CO)[C@@H](O)[C@H](O)[C@H]4O)cc3oc-2c1 [ResGlu, resorufin-β-d-glucopyranoside]    431(±29) minutes
O=C1C=C(O[C@@H]2O[C@H](CO)[C@H](O)[C@H](O)[C@H]2O)C(=O)c2ccccc21    413(±14) minutes
O=c1ccc2nc3ccc(O[C@@H]4O[C@H](CO)[C@H](O)[C@H](O)[C@H]4O)cc3oc-2c1 [ResGal, resorufin-β-d-galactopyranoside]    734(±188) minutes

All values here come from patent US10179927B2.
